Test system: STK16;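 also: KINOMEscan kinase panel screen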
stated.conditions: concentration: 1 μM, replicates: in singlicate; n = 1
For each entry below, report its %Inh value.
Hi! Could you send only the number? It should be in %, unit omitted.

%Inh reading for CNC(=O)c1ccc(C)c(-n2c(C)cc(OCc3ccc(F)cc3F)c(Br)c2=O)c1 : 3

%Inh reading for CC(C)c1ccc(O)cc1Nc1ccnc2ccc(C(F)(F)F)cc12 [GW482059] : 0

%Inh reading for COc1ccc(CSc2nnc(-c3ccc4c(c3)CCO4)o2)cc1 : 5

%Inh reading for CC(C)c1cc(-c2ccc3c(N)n[nH]c3c2)nc(N)n1 [GSK2250882] : 21

%Inh reading for COc1ccc2cc(-c3nc(-c4ccccc4C(C)C)[nH]c3-c3ccncc3)ccc2c1 [SB-660566] : 9

%Inh reading for Fc1ccc(-c2nc3n(c2-c2ccncc2)CCS3)cc1 [GI98581] : 0
